studySystem: Recombinant Human CTLA4-Fc chimera (R&D systems) (human) (UniProt P16410)
assayExplanation: BLItz (BLI), biotinylated CTLA-4 on SA chip, MBP fusion as analyte
outcomeMeasure: Kd (µM)
Could you give me the number in µM? Just the number is fine.

Report Kd, nothing else, for this binder: GGCMHPFLLVVSHHFCGG (peptide, not shown: large carriers; small tags and cut ends) [H12SSI-Ctla4-3-02 (MBP fusion)]
3.88
